FYI, the data here is from paper PMC6164331.

Entries and their measured melting point follow.

COMPOUND | melting point
COc1ccc(-c2cc3cc(Br)cc(C(=O)/C=C/c4ccc(OC(F)(F)F)cc4)c3o2)cc1 [3y] | 187 to 188 °C
O=C(/C=C/c1ccccc1)c1cc(Br)cc2cc(-c3cccc(F)c3)oc12 [3k] | 243 to 245 °C
COc1ccc(-c2cc3cc(Br)cc(C(=O)/C=C/c4ccc(F)cc4)c3o2)cc1 [3v] | 241 to 242 °C
COc1ccc(/C=C/C(=O)c2cc(Br)cc3cc(-c4cccc(Cl)c4)oc23)cc1 [3s] | 214 to 215 °C
O=C(/C=C/c1ccc(OC(F)(F)F)cc1)c1cc(Br)cc2cc(-c3cccc(F)c3)oc12 [3o] | 186 to 187 °C
O=C(/C=C/c1ccc(Cl)cc1)c1cc(Br)cc2cc(-c3ccc(F)cc3)oc12 [3h] | 231 to 233 °C
O=C(/C=C/c1ccccc1)c1cc(Br)cc2cc(-c3ccc(F)cc3)oc12 [3f] | 224 to 226 °C
O=C(/C=C/c1ccccc1)c1cc(Br)cc2cc(-c3cccc(Cl)c3)oc12 [3p] | 218 to 219 °C
O=C(/C=C/c1ccc(F)cc1)c1cc(Br)cc2cc(-c3cccc(F)c3)oc12 [3l] | 266 to 267 °C
COc1ccc(-c2cc3cc(Br)cc(C(=O)/C=C/c4ccccc4)c3o2)cc1 [3u] | 255 to 256 °C
O=C(/C=C/c1ccc(F)cc1)c1cc(Br)cc2cc(-c3cccc(Cl)c3)oc12 [3q] | 232 to 233 °C
O=C(/C=C/c1ccc(Cl)cc1)c1cc(Br)cc2cc(-c3cccc(F)c3)oc12 [3m] | 234 to 235 °C
COc1ccc(/C=C/C(=O)c2cc(Br)cc3cc(-c4ccccc4)oc23)cc1 [3d] | 206 to 208 °C
COc1ccc(/C=C/C(=O)c2cc(Br)cc3cc(-c4cccc(F)c4)oc23)cc1 [3n] | 221 to 222 °C
COc1ccc(/C=C/C(=O)c2cc(Br)cc3cc(-c4ccc(OC)cc4)oc23)cc1 [3x] | 216 to 217 °C
O=C(/C=C/c1ccc(Cl)cc1)c1cc(Br)cc2cc(-c3ccccc3)oc12 [3c] | 242 to 245 °C
COc1ccc(-c2cc3cc(Br)cc(C(=O)/C=C/c4ccc(Cl)cc4)c3o2)cc1 [3w] | 209 to 210 °C
O=C(/C=C/c1ccc(F)cc1)c1cc(Br)cc2cc(-c3ccc(F)cc3)oc12 [3g] | 239 to 242 °C
O=C(/C=C/c1ccc(Cl)cc1)c1cc(Br)cc2cc(-c3cccc(Cl)c3)oc12 [3r] | 257 to 258 °C

* * *

System: MCF-7 cell line
Test: MTT cytotoxicity assay against the MCF-7 cell line
Conditions: Homo sapiens, MCF7, 48 h, read-out: MCF-7 Cell Line IC50 (μM) ± SD
# IC50 per record follows

COMPOUND_STRUCTURE | IC50
COc1ccc(/C=C/C(=O)c2cc(Br)cc3cc(-c4ccc(F)cc4)oc23)cc1 | 0.000355 µM
COc1ccc(-c2cc3cc(Br)cc(C(=O)/C=C/c4ccc(Cl)cc4)c3o2)cc1 | 30.6 µM
O=C(/C=C/c1ccccc1)c1cc(Br)cc2cc(-c3cccc(Cl)c3)oc12 | 12.6 µM
COc1ccc(/C=C/C(=O)c2cc(Br)cc3cc(-c4ccccc4)oc23)cc1 | 22.8 µM
